Target: IL-23 (human, p19/p40 heterodimer) (Homo sapiens, UniProt Q9NPF7;P29460 SEQ:20-189,SEQ:23-328)
Sequence (Q9NPF7 20-189, chain 1 of 2): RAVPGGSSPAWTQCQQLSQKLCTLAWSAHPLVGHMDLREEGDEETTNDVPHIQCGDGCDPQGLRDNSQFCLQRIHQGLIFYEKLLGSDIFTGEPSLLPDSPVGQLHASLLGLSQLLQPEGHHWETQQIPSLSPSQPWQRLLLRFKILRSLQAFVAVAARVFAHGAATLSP
Sequence (P29460 23-328, chain 2 of 2): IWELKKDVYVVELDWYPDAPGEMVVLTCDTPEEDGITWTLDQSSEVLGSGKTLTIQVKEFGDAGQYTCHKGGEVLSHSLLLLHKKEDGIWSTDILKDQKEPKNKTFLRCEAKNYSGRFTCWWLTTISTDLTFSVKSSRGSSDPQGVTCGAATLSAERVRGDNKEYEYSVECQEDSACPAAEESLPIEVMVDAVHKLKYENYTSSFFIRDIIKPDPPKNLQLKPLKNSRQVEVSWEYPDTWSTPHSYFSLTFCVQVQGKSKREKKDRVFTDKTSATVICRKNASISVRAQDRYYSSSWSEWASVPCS
Test: filter; DPBS Ca Mg
Details: tags: R&D Systems, carrier free
Protocol: The dot blot binding assay previously described was used to characterize the relative potency of the majority of the aptamers synthesized. For KD determination, chemically synthesized aptamers were purified using denaturing polyacrylamide gel electrophoresis, 5′end labeled with γ-³²P ATP and were tested for direct binding to full human IL-23. […] KD values were calculated by fitting the equation y=(max/(1+K/protein))+yint using KaleidaGraph (KaleidaGraph v. 3.51, Synergy Software). […]
pKd: −log10 of the molar value.
quantity: pKd

[[record]]
binder = "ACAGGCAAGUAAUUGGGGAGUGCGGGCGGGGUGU (mixed, 2'-OMe C,U and A3; other A,G deoxy; 3'-idT) [ARC1428]"
quantity = "pKd"
result_value = 8.74

[[record]]
binder = "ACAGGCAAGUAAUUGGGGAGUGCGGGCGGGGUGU (mixed, deoxy A,G; 2'-OMe C,U; PS 29-30; 3'-idT [2'-OMe C,U at 2,6,10,13,14,21,23,27,32,34; deoxy A,G elsewhere; PS 29-30 (N = PS linkage, left out); 3'-inverted dT at 35]) [ARC1462]"
quantity = "pKd"
result_value = 8.77

[[record]]
binder = "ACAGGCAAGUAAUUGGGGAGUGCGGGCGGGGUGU (mixed, deoxy A,G; 2'-OMe C,U; PS 5-6; 3'-idT [PS linkage 5-6; 2'-OMe C,U at 2,6,10,13,14,21,23,27,32,34; all A,G 2'-deoxy; 3'-inverted dT at 35]) [ARC1455]"
quantity = "pKd"
result_value = 8.80

[[record]]
binder = "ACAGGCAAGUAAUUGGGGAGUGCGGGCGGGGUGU (mixed, 2'-OMe C,U and A1; other A,G deoxy; 3'-idT) [ARC1427]"
quantity = "pKd"
result_value = 8.52

[[record]]
binder = "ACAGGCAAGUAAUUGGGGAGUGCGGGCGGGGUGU (mixed, deoxy A,G; 2'-OMe C,U; PS 11-12,19-20,20-21,21-22,22-23,26-27; 3'-idT [2'-OMe C,U at 2,6,10,13,14,21,23,27,32,34; deoxy A,G elsewhere; PS 11-12,19-20,20-21,21-22,22-23,26-27 (N = PS linkage, left out); 3'-inverted dT at 35]) [ARC1465]"
quantity = "pKd"
result_value = 8.89

[[record]]
binder = "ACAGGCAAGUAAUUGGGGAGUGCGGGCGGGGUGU (mixed, 2'-OMe C,U and G16; other A,G deoxy; 3'-idT) [ARC1437]"
quantity = "pKd"
result_value = 8.41

[[record]]
binder = "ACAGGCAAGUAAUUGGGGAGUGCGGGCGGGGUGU (mixed, 2'-OMe C,U and A1,G33; other A,G deoxy; 3'-idT) [ARC1539]"
quantity = "pKd"
result_value = 8.18

[[record]]
binder = "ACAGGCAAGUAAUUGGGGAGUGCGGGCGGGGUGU (mixed, 2'-OMe C,U and G20; other A,G deoxy; 3'-idT) [ARC1441]"
quantity = "pKd"
result_value = 8.57

[[record]]
binder = "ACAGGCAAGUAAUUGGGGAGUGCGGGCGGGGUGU (mixed, 2'-OMe C,U and A7,A8,G15; other A,G deoxy; 3'-idT) [ARC1452]"
quantity = "pKd"
result_value = 7.72

[[record]]
binder = "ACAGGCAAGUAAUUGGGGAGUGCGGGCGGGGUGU (mixed, deoxy A,G; 2'-OMe C,U; PS 3-4; 3'-idT [PS linkage 3-4; 2'-OMe C,U at 2,6,10,13,14,21,23,27,32,34; all A,G 2'-deoxy; 3'-inverted dT at 35]) [ARC1453]"
quantity = "pKd"
result_value = 8.36

[[record]]
binder = "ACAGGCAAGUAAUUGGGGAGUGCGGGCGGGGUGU (mixed, 2'-OMe C,U and A1,A3,G33; other A,G deoxy; 3'-idT) [ARC1451]"
quantity = "pKd"
result_value = 7.99

[[record]]
binder = "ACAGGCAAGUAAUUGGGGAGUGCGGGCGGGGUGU (mixed, 2'-OMe C,U and G22; other A,G deoxy; 3'-idT) [ARC1442]"
quantity = "pKd"
result_value = 8.55

[[record]]
binder = "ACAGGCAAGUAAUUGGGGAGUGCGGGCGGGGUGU (mixed, 2'-OMe C,U and G28; other A,G deoxy; 3'-idT) [ARC1446]"
quantity = "pKd"
result_value = 8.68

[[record]]
binder = "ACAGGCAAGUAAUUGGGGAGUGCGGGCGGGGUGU (mixed, 2'-OMe C,U and G26; other A,G deoxy; 3'-idT) [ARC1445]"
quantity = "pKd"
result_value = 8.55

[[record]]
binder = "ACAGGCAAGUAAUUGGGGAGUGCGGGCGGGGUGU (mixed, 2'-OMe C,U and G30; other A,G deoxy; 3'-idT) [ARC1448]"
quantity = "pKd"
result_value = 8.64

[[record]]
binder = "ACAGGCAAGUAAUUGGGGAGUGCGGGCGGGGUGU (mixed, deoxy A,G; 2'-OMe C,U; PS 16-17; 3'-idT [PS linkage 16-17; 2'-OMe C,U at 2,6,10,13,14,21,23,27,32,34; all A,G 2'-deoxy; 3'-inverted dT at 35]) [ARC1457]"
quantity = "pKd"
result_value = 8.52

[[record]]
binder = "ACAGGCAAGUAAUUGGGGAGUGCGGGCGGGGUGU (mixed, 2'-OMe C,U and A19; other A,G deoxy; 3'-idT) [ARC1440]"
quantity = "pKd"
result_value = 8.17

[[record]]
binder = "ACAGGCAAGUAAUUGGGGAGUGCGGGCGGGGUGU (mixed, 2'-OMe C,U and G29; other A,G deoxy; 3'-idT) [ARC1447]"
quantity = "pKd"
result_value = 8.60

[[record]]
binder = "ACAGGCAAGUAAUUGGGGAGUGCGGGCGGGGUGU (mixed, 2'-OMe C,U and G31; other A,G deoxy; 3'-idT) [ARC1449]"
quantity = "pKd"
result_value = 8.59

[[record]]
binder = "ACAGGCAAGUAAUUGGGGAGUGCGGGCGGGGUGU (mixed, deoxy A,G; 2'-OMe C,U; PS 30-31; 3'-idT [2'-OMe C,U at 2,6,10,13,14,21,23,27,32,34; deoxy A,G elsewhere; PS 30-31 (N = PS linkage, left out); 3'-inverted dT at 35]) [ARC1463]"
quantity = "pKd"
result_value = 8.44

[[record]]
binder = "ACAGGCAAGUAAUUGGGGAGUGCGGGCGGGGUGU (mixed, 2'-OMe C,U and A1,A8,G9,A11,G18,A19,G20,G22,G26,G28,G29,G33; other A,G deoxy; 3'-idT) [ARC1543]"
quantity = "pKd"
result_value = 8.23

[[record]]
binder = "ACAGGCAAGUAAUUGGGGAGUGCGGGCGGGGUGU (mixed, 2'-OMe C,U and A8; other A,G deoxy; 3'-idT) [ARC1432]"
quantity = "pKd"
result_value = 8.42

[[record]]
binder = "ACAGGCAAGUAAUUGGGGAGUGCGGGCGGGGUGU (mixed, deoxy A,G; 2'-OMe C,U; PS 17-18; 3'-idT [PS linkage 17-18; 2'-OMe C,U at 2,6,10,13,14,21,23,27,32,34; all A,G 2'-deoxy; 3'-inverted dT at 35]) [ARC1458]"
quantity = "pKd"
result_value = 8.54

[[record]]
binder = "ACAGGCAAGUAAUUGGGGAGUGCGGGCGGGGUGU (mixed, 2'-OMe C,U and A8,G9,A11; other A,G deoxy; 3'-idT) [ARC1540]"
quantity = "pKd"
result_value = 8.12

[[record]]
binder = "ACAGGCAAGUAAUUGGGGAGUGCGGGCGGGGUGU (mixed, deoxy A,G; 2'-OMe C,U; PS 25-26; 3'-idT [PS linkage 25-26; 2'-OMe C,U at 2,6,10,13,14,21,23,27,32,34; all A,G 2'-deoxy; 3'-inverted dT at 35]) [ARC1461]"
quantity = "pKd"
result_value = 8.43

[[record]]
binder = "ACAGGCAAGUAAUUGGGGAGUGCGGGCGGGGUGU (mixed, 2'-OMe C,U and A12; other A,G deoxy; 3'-idT) [ARC1435]"
quantity = "pKd"
result_value = 8.01

